Item-by-item account of scaled log2 fold change
B1: library; numbered along this chain (parent)
chain: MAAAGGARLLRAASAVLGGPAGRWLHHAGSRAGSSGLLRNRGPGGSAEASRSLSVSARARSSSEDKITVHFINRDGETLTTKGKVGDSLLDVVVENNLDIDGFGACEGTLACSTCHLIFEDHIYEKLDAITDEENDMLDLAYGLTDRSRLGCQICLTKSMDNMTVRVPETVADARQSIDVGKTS

Variants of: B1
test.method.notes: scaled log2 fold change in cell abundance, elesclomol vs control (0 = silent mean, 1 = nonsense mean) (scaled log2 ratio); higher = higher viability under elesclomol (loss of FDX1 cuproptosis function);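 also: variant abundance is its share of total variant reads in each endpoint sample, from next-generation sequencing of the integrated ORF PCR-amplified out of genomic DNA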
test.context: with HEK293T FDX1 KO; elesclomol 40 nM; glucose 10 mM; 11 days
Hey, just send me the number, nothing else.

# example entries with known answers
1) H70N : -0.00885
2) V180W : 0.322
3) S54E : 0.751

## Task Identify the reported scaled log2 fold change for the following entry. "A129W"
## Result 1.07

## Task Identify the reported scaled log2 fold change for the following entry. "I72H"
## Result -0.581

## Task Identify the reported scaled log2 fold change for the following entry. "L17T"
## Result -0.223
